- test method notes: inhibitors of Bluetongue virus cytopathic effect, confirmation, arbovirus, BSR cells (AID 1250)
- assay context: BSR cells, Bluetongue virus CPE, ATP luminescence, 72 h; at 20 µM (top of the series)
measure: CPE inhibition (%)
Answers are plain numbers, in %.

The examples below pair each entry with its known result.
compound: COc1ccc(-c2noc(CSc3nc(-c4ccccc4)cc(=O)[nH]3)n2)cc1OC
CPE inhibition [%]: 26.6

compound: C/C(C/C(C)=C1/SC(=S)NC1=O)=C1\SC(=S)NC1=O
CPE inhibition [%]: 6.76

compound: COc1cc(-c2nnc(-c3ccc(N4CCOCC4)cc3)o2)cc(OC)c1OC
CPE inhibition [%]: 8.33

compound: N#Cc1c(N2C(=O)Nc3ccccc3N2O)sc2c1CCCCCC2
CPE inhibition [%]: 19.9

Ask: Query (compound): Cc1ccc(N2C(=O)C3CC(c4ccccc4)=C4C5C=CC(C6C(=O)N(c7ccc(C)cc7)C(=O)C56)C4C3C2=O)cc1 (stereo not given) ; field requested: CPE inhibition
Reply: 11.8

----------
- test method notes: inhibitors of Bluetongue virus cytopathic effect, confirmation, arbovirus, BSR cells (AID 1250)
- assay context: BSR cells, Bluetongue virus CPE, ATP luminescence, 72 h; at 20 µM (top of the series)
Exercise: for every item that follows, state its recorded CPE inhibition.
Answers are plain numbers, in %.

compound: COCCSc1nnc(NC(=O)C2CCCCC2)s1
CPE inhibition [%]: 6.07

Hey, can you go through the list below and give me CPE inhibition for every item?
1. COc1ccc(CCCc2nnc(SCc3nc4ccccc4c(=O)[nH]3)n2C)cc1
2. COc1cc2ccccc2cc1C(=O)NC(=S)Nc1cc(C(=O)O)ccc1C
3. N#Cc1c(NC(=O)C2CC(Cl)=CCC2C(=O)O)sc2c1CCCCC2 (stereo unspecified)
4. CCN=c1scc(C)n1/N=C/c1cc(Br)c(O)c(Br)c1
5. Cc1ccc(NC(=O)COc2ccc(Br)cc2CO)cc1

Reply:
3.86
17.8
17.1
-2.38
10.5

----------
- test method notes: inhibitors of Bluetongue virus cytopathic effect, confirmation, arbovirus, BSR cells (AID 1250)
- assay context: BSR cells, Bluetongue virus CPE, ATP luminescence, 72 h; at 20 µM (top of the series)
Label 1 (yes) when CPE inhibition is at or above 10%; anything below gets 0 (no).

Take a look at these entries with their results.
compound: Cc1cccc(OCC(=O)Nc2cccc(C(=O)Nc3ccccc3C(=O)O)c2)c1
class: 1 (yes)
//
compound: Oc1ccc(-c2n[nH]c(=S)n2-c2ccc3c(c2)OCCO3)c(O)c1
class: 1 (yes)
//
compound: COCC(C)n1c(SCc2nc3ccccc3c(=O)[nH]2)nc2ccccc2c1=O (stereo unspecified)
class: 1 (yes)
//
compound: CCOC(=O)C1CCCN(Cc2ccccc2Cl)C1 (stereo unspecified)
class: 0 (no)
//
compound: CC(C)CSC1=NSC2=NC(=O)/C(=C\c3coc4ccccc4c3=O)C(=N)N12
class: 1 (yes)

Consider the additional compound presented here.
Ask: Say whether COC1=C/C(=C/c2c(N)n3nc(-c4ccc(C)cc4)sc3nc2=O)C=CC1=O shows CPE inhibition of 10% or more.
Reply: 1 (yes)

----------
- test method notes: inhibitors of Bluetongue virus cytopathic effect, confirmation, arbovirus, BSR cells (AID 1250)
- assay context: BSR cells, Bluetongue virus CPE, ATP luminescence, 72 h; at 20 µM (top of the series)
Label 1.0 for high-side CPE inhibition (at or above 10%) and 0.0 for low-side CPE inhibition (below it).

Ask: I'd appreciate it if you could say whether CCN(CC)C(=O)CSC1=N/C(=C/c2ccco2)C(=O)N1c1ccc(OC)c(Cl)c1 has CPE inhibition at least equal to 10%.
Reply: 1.0

Ask: And what about the molecule NC(=O)c1cc([N+](=O)[O-])ccc1NCc1cccnc1 ?
Reply: 0.0

Ask: Try the molecule Cc1csc(NC(=O)CN2C(=O)C3CC=CCC3C2=O)n1 (configuration not stated)
Reply: 0.0

Source: PubChem BioAssay AID1250
